experiment: Differential scanning calorimetry
Format: physicochemical
Set-up: unit: °C
particulars: in °C (unit assumed)
I'd appreciate it if you could supply Tm values for the items below.

S14: human anti-HMG1 antibody; VL/VH aa SEQ ID NO: 66/68 (antibody, listed as Homo sapiens, V domains shown) VH: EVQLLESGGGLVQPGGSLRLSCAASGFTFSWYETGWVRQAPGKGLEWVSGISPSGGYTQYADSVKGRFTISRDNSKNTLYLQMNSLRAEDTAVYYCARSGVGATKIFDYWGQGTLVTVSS VL: AQDIQMTQSPSSLSASVGDRVTIICRANERINTYLNWYQQKPGKAPKLLISGTSSLESGVPSRFSGSGSGTEFTLSISSLQPEDFASYYCQQSYSSPYTFGQGTNLEIR : 70.7
G20: human anti-HMG1 antibody; VL/VH aa SEQ ID NO: 46/48 (antibody, listed as Homo sapiens, V domains shown) VH: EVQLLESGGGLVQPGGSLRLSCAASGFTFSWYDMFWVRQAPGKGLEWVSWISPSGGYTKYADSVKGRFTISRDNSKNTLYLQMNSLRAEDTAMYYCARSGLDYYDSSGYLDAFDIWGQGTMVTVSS VL: AQDIQMTQSPSSVSASVGDRVTITCRASQDVSIWLAWYQQKPGKAPKLLIFGASRLQSGVPSRFSGSRSGADFTLTIDSVQPEDFASYYCQQADSFPLTFGGGTKVEIK : 71.2

Now, please, on to the next molecule.
Documented Tm of G2: human anti-HMG1 IgG1 from Fab phage display library; VL/VH aa SEQ ID NO: 30/32 (antibody, listed as Homo sapiens, V domains shown) VH: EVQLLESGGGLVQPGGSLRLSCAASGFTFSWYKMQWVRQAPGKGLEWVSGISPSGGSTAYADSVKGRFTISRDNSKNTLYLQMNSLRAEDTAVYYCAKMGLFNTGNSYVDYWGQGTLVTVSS VL: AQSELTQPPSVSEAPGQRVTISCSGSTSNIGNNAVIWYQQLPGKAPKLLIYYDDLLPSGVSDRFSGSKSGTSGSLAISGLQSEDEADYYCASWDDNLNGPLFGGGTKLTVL : 67.1
